Record form. Attribute: microsomal CLint at 0.5 μM. Fill in for each entry.
# Test method notes: Determination of the microsomal half-life, rat liver microsomes
# Assay setup: rat, liver microsomes, pH 7.4
Counter-ions that a name gives are not always drawn.

*Q* Report microsomal CLint at 0.5 μM for O=C1c2c(C3=CCOCC3)ccnc2CN1CCc1ccc2ccccc2n1 [Example 265] please.
*A* 100 to 220 µL/min/mg

*Q* Which microsomal CLint at 0.5 μM is reported for this molecule? Cn1nccc1-c1cccc2c1C(=O)N(CCc1nc3ccccc3[nH]1)C2 [Example 313, trifluoroacetate]
*A* < 100 µL/min/mg

*Q* // query microsomal CLint at 0.5 μM value for entry O=C1c2c(N3CCC(C(F)F)C3)ccnc2CN1CCc1cn2ccccc2n1 (stereo not shown) [compound 386]
*A* 100 to 220 µL/min/mg

*Q* What microsomal CLint at 0.5 μM value was documented for this molecule, O=C1c2c(-c3cccnc3)ccnc2CN1CCc1cn2ccccc2n1 [Example 358] ?
*A* < 100 µL/min/mg
